Biological target: T1, human TL1A (Fitzgerald #30R-AT070) (human, UniProt O95150 72-251, limits assumed)
T1 construct: Coated on the ELISA plate at 1 ug/mL; also called TNFSF15
T1 sequence (looked up): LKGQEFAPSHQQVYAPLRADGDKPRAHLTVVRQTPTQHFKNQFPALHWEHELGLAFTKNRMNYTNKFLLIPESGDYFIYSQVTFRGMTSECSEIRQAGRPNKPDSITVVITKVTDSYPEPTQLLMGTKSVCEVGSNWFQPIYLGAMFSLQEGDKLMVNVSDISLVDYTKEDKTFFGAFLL
Experiment: ELISA titration, coated human TL1A, culture supernatant
Please provide measured Kd for the entries that follow.
Unit nM implied. Number only.

Query string: // Input: A98 (antibody, human IgG1, V domains shown, human IgG1/kappa (pFuse vectors), culture supernatant) VH: QVQLVQSGAEVKKPGASVKVSCKASGFDIQDTYMHWVRQAPGQGLEWMGRIEPASGHIKYDPKFQVRATMTRDTSTSTVYMELSSLRSEDTAVYYCARSGGLPDWWGQGTTVTVSS VL: EIVLTQSPGTLSLSPGERATLSCRASSSVSYMYWYQQKPGQAPRLLIYATSNLASGIPDRFSGSGSGTDFTLTISRLEPEDFAVYYCQQWEGNPRTFGGGTKLEIK . Output its Kd only.
Result string: 0.14

Query string: // Input: A73 (antibody, human IgG1, V domains shown, human IgG1/kappa (pFuse vectors), culture supernatant) VH: QVQLVQSGAEVKKPGASVKVSCKASGFDIQDTYMHWVRQAPGQGLEWMGRIEPASGHIKYDPKFQGRVTMTTDTSTSTVYMELSSLRSEDTAVYYCARSGGLPDWWGQGTTVTVSS VL: EIVLTQSPGTLSLSPGERATLSCRASSSVSYMYWYQQKPGQAPRPWIYATSNLASGIPDRFSGSGSGTDFTLTISRLEPEDFAVYYCQQWEGNPRTFGGGTKLEIK . Output its Kd only.
Result string: 0.128

Query string: // Input: A89 (antibody, human IgG1, V domains shown, human IgG1/kappa (pFuse vectors), culture supernatant) VH: QVQLVQSGAEVKKPGASVKVSCKASGFDIQDTYMHWVRQAPGQGLEWMGRIEPASGHIKYDPKFQGRVTMTRDTSTSTVYMELSSLRSEDTAVYYCARSGGLPDWWGQGTTVTVSS VL: EIVLTQSPGTLSASPGERATLSCRASSSVSYMYWYQQKPGQAPRLLIYATSNLASGIPDRFSGSGSGTDFTLTISRLEPEDFAVYYCQQWEGNPRTFGGGTKLEIK . Output its Kd only.
Result string: 0.117

Query string: // Input: A154 (antibody, human IgG1, V domains shown, human IgG1/kappa (pFuse vectors), culture supernatant) VH: QVQLVQSGAEVKKPGASVKVSCKASGFDIQDTYMHWVKQAPGQGLEWMGRIEPASGHIKYDPKFQGRVTMTRDTSTSTVYMELSSLRSEDTAVYYCARSGGLPDWWGQGTTVTVSS VL: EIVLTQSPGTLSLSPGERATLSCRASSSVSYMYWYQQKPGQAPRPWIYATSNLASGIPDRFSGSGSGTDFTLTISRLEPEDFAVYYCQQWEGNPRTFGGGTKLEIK . Output its Kd only.
Result string: 0.066

Query string: // Input: A38 (antibody, human IgG1, V domains shown, human IgG1/kappa (pFuse vectors), culture supernatant) VH: QVQLVQSGAEVKKPGASVKVSCKASGFDIQDTYMHWVKQRPGQGLEWIGRIDPASGHTKYDPKFQVRATITTDTSTSTVYLELSSLRSEDTAVYYCARSGGLPDVWGQGTTVTVSS VL: EIVLTQSPGTLSASPGERATMSCRASSSVSYMYWYQQKPGQAPRPWIYATSNLASGVPDRFSGSGSGTDYTLTISRVEPEDFAVYYCQQWSGNPRTFGGGTKLEIK . Output its Kd only.
Result string: 0.103
